For each entry below, report its Ki value.
molecular target: Sigma non-opioid intracellular receptor 1 (Homo sapiens, UniProt Q99720); experiment: Binding affinity to sigma 1 receptor in human Jurkat cells; assay type: cell-based
Sequence (Q99720 whole entry): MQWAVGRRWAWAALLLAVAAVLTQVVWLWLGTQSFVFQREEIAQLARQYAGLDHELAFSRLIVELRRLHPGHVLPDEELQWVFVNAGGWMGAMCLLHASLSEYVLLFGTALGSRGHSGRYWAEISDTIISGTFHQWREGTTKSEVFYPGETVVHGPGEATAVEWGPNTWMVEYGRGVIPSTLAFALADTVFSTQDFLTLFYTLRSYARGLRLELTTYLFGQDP
Answers are plain numbers, in nM.

COMPOUND_STRUCTURE	MEASURE_UNIT	Ki
Fc1ccc(COC2CCN(Cc3ccc4[nH]cnc4c3)CC2)cc1F	nM	12

Shift focus to the following entry.
Ki value, target or system Sigma non-opioid intracellular receptor 1 (Homo sapiens, UniProt Q99720), for Fc1cc(COC2CCN(Cc3ccc4[nH]cnc4c3)CC2)ccc1Cl : 3.9

---

target: Sigma intracellular receptor 2 (Homo sapiens); assay: Displacement of [3H]DTG from sigma-2 receptor in HEK293 cell membrane assessed as inhibition constant
Sequence (Q5BJF2 whole entry): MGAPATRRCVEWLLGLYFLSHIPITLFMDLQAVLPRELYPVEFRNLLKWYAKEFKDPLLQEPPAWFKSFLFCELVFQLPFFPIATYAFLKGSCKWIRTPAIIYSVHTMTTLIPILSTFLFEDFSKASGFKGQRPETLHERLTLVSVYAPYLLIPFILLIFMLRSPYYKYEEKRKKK
For each entry below, report its Ki value.
Answers are plain numbers, in nM.

Field: example entries. Status: answers known.
COMPOUND	MEAS_VALUE
Cc1ccccc1CO[C@H]1CCCN(Cc2ccc3c(cnn3C)c2)C1	239
Fc1ccc(CN2CCCC23CCN(Cc2cn4ccccc4n2)C3)cc1F (centres undefined)	23
Fc1ccc(COC2CCN(Cc3ccc4[nH]cnc4c3)CC2)cc1F	166
Cc1c(Cl)cccc1NC(=O)CN1CCC2(CCCN2Cc2ccc(F)c(F)c2)C1 (centres undefined)	43
Fc1ccc(CN2CCCC23CCN(Cc2cc4ccc(Cl)cc4[nH]2)C3)cc1F (centres undefined)	23
Fc1cc(COC2CCN(Cc3ccc4[nH]cnc4c3)CC2)ccc1Cl	70
Fc1ccc(CN2CCCC3(CCN(Cc4cc5ccc(Cl)cc5[nH]4)C3)C2)cc1F (centres undefined)	30
FC(F)(F)c1cccc(COC2CCN(Cc3ccc4[nH]cnc4c3)CC2)c1	73

Shift focus to the following entry.
Quick note, Ki for Cc1cc(NC(=O)CN2CCC3(CCCN3Cc3ccc(F)c(F)c3)C2)ccc1F (centres undefined) landed at 47

---

test: Plasma protein binding in mouse assessed as unbound fraction; type: ADME
REPORTED_ENDPOINT: Fu (%)
One number for each entry, in %.

Field: example entries. Status: answers known.
COMPOUND	Fu [%]
Cc1ccccc1CO[C@H]1CCCN(Cc2ccc3c(cnn3C)c2)C1	8.8
Fc1ccc(CN2CCCC23CCN(Cc2cn4ccccc4n2)C3)cc1F (stereo unspecified)	30.2
FC(F)(F)c1cccc(COC2CCN(Cc3cn4ccccc4n3)CC2)c1	8.8
Fc1cc(COC2CCN(Cc3ccc4[nH]ncc4c3)CC2)ccc1Cl	6.5

Lab note: each compound below needs its Fu filled in.
1. Cn1cnc2cc(CN3CCC(OCc4ccc(Cl)c(F)c4)CC3)ccc21
2. COc1ccc(CN2CCC[C@H](OCc3ccc(C)cc3)C2)cc1F

Reply:
75
2.5

---

test: Ratio of total drug concentration in mouse brain to plasma at 5 mg/kg, ip measured after 5 hrs; format: ADME, organism-based
REPORTED_ENDPOINT: Kp at 5 h
One number for each entry.

Quick note, Kp at 5 h for Fc1cc(COC2CCN(Cc3ccc4[nH]cnc4c3)CC2)ccc1Cl landed at 2.4

---

target: D(4) dopamine receptor (Homo sapiens); assay: Displacement of [3H]N-methylspiperone from D4 receptor in HEK293 cell membrane; assay type: cell membranes; conditions: read-out: Ki
Sequence (P21917 whole entry): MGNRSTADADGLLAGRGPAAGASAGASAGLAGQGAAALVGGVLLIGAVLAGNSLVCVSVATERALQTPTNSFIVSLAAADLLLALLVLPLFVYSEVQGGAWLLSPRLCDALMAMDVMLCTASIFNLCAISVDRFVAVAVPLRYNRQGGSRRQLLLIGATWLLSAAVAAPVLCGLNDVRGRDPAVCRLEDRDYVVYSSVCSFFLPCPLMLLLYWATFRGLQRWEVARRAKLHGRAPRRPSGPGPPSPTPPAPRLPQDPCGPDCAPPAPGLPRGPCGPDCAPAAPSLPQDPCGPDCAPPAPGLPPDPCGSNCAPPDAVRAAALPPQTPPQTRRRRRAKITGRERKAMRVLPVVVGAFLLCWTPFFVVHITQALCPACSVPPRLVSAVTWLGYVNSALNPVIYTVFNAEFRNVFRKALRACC
REPORTED_ENDPOINT: pKi
Numbers only, as −log10 of the molar value.

MOLECULE	TESTED_TARGET	pKi
c1ccc(OC[C@@H]2CN(Cc3ccc4[nH]ccc4c3)CCO2)cc1	D(4) dopamine receptor (Homo sapiens)	8.48
FC(F)(F)c1cccc(COC2CCN(Cc3cn4ccccc4n3)CC2)c1	D(4) dopamine receptor (Homo sapiens)	6.76
Fc1ccc(CN2CCCC23CCN(Cc2cc4ccc(Cl)cc4[nH]2)C3)cc1F (stereo unspecified)	D(4) dopamine receptor (Homo sapiens)	6.57
Cc1csc(OC[C@@H]2CN(Cc3cc4ccc(Cl)cc4[nH]3)CCO2)n1	D(4) dopamine receptor (Homo sapiens)	6.77
Fc1ccc2c(CN3CCC(F)(F)[C@H](CCc4ccccc4)C3)c[nH]c2c1	D(4) dopamine receptor (Homo sapiens)	8.46

Lab note: each molecule below needs its pKi filled in.
1. Cn1ncc2cc(CN3CCO[C@H](COc4ccc(F)c(F)c4)C3)ccc21
2. Cc1csc(OC[C@@H]2CN(Cc3cn4ccccc4n3)CCO2)n1

Reply:
1. 7.55
2. 5.81

---

target: D(1B) dopamine receptor (Homo sapiens)
Sequence (P21918 whole entry): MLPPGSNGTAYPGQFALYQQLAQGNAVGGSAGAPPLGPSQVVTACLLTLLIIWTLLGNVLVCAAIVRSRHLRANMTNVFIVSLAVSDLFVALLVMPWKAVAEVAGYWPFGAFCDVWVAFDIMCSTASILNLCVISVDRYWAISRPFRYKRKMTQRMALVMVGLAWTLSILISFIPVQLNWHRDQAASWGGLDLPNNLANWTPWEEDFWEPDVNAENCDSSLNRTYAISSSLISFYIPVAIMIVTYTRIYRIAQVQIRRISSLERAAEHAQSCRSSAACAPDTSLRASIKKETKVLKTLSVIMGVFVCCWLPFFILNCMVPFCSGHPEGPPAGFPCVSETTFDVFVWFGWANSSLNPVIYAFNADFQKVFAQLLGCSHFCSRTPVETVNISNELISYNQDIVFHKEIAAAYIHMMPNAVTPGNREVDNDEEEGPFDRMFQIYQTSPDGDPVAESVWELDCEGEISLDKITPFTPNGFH
For each entry below, report its Ki value.

Field: example entries. Status: answers known.
COMPOUND	MEAS_VALUE
FC(F)(F)c1cccc(COC2CCN(Cc3ccc4[nH]cnc4c3)CC2)c1	> 10 µM
Fc1ccc(CN2CCCC23CCN(Cc2cc4ccc(Cl)cc4[nH]2)C3)cc1F (stereo not drawn)	> 10 µM

Shift focus to the following entry.
Ki value, target or system D(1B) dopamine receptor (Homo sapiens), for Fc1ccc(CN2CCCC3(CCN(Cc4cc5ccc(Cl)cc5[nH]4)C3)C2)cc1F (stereo not drawn) : > 10 µM

---

target: Sigma non-opioid intracellular receptor 1 (Homo sapiens, UniProt Q99720); assay: Displacement of [3H] Pentazocine from sigma 1 receptor in HEK293 cell membrane; assay type: cell membranes; conditions: read-out: Ki
Category | rule: reported Ki within range, see bottom bin (below 8 nM), middle bin (8 nM to below 40 nM), top bin (40 nM or more)

Please review the following examples before continuing.
COMPOUND	CLASSIFICATION
Fc1ccc(COC2CCN(Cc3ccc4[nH]cnc4c3)CC2)cc1F	middle bin
Cc1cccc(CO[C@H]2CCCN(Cc3cc4ccc(Cl)cc4[nH]3)C2)n1	top bin
Cc1ccccc1CO[C@H]1CCCN(Cc2ccc3c(cnn3C)c2)C1	middle bin

Task item: Record c1ccc(OC[C@@H]2CN(Cc3ccc4[nH]ccc4c3)CCO2)cc1 — which class?
Reply: top bin

Task item: Record Cc1c(Cl)cccc1NC(=O)CN1CCC(OCc2ccc(Cl)c(F)c2)CC1 — which class?
Reply: top bin

Task item: Record Fc1ccc(CN2CCCC3(CCN(Cc4cc5ccc(Cl)cc5[nH]4)C3)C2)cc1F (stereo unspecified) — which class?
Reply: bottom bin

Task item: Record COc1ccc(CN2CCC[C@H](OCc3ccc(C)cc3)C2)cc1F — which class?
Reply: bottom bin

---

experiment: Plasma protein binding in human assessed as unbound fraction; assay type: ADME, cell-free
REPORTED_ENDPOINT: Fu (%)
Give bare numbers, in %.

MOLECULE	MEASURE_UNIT	MEAS_VALUE
Fc1cc(COC2CCN(Cc3ccc4[nH]ncc4c3)CC2)ccc1Cl	%	7
Cc1ccccc1CO[C@H]1CCCN(Cc2ccc3c(cnn3C)c2)C1	%	4.3
Cn1cnc2cc(CN3CCC(OCc4ccc(Cl)c(F)c4)CC3)ccc21	%	13
Fc1ccc(CN2CCCC23CCN(Cc2cn4ccccc4n2)C3)cc1F (configuration not stated)	%	2.7
FC(F)(F)c1cccc(COC2CCN(Cc3cn4ccccc4n3)CC2)c1	%	2.2

Shift focus to the following entry.
Quick note, Fu for COc1ccc(CN2CCC[C@H](OCc3ccc(C)cc3)C2)cc1F landed at 1.3

---

molecular target: D(1A) dopamine receptor (Homo sapiens, UniProt P21728); assay: Displacement of [3H]SCH23390 from D1 receptor in HEK293 cell membrane assessed as inhibition constant
Sequence (P21728 whole entry): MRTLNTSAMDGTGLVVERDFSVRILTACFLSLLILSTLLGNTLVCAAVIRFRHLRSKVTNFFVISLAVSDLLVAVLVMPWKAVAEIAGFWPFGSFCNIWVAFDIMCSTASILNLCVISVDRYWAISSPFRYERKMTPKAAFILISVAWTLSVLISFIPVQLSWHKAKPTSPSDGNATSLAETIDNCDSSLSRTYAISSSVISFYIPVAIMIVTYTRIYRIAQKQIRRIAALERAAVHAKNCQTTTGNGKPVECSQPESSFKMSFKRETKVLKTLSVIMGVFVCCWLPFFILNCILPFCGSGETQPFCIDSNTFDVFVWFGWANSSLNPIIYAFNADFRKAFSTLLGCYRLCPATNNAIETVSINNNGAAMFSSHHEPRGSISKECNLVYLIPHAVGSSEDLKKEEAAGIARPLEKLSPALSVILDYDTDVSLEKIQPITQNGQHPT
REPORTED_ENDPOINT: Ki

Field: example entries. Status: answers known.
COMPOUND	Ki
FC(F)(F)c1cccc(COC2CCN(Cc3ccc4[nH]cnc4c3)CC2)c1	> 10 µM
Cc1cc(NC(=O)CN2CCC3(CCCN3Cc3ccc(F)c(F)c3)C2)ccc1F (centres undefined)	> 10 µM

Lab note: each compound below needs its Ki filled in.
1. Fc1ccc(CN2CCCC23CCN(Cc2cc4ccc(Cl)cc4[nH]2)C3)cc1F (centres undefined)
2. Fc1ccc(COC2CCN(Cc3ccc4[nH]cnc4c3)CC2)cc1F
3. Fc1cc(COC2CCN(Cc3ccc4[nH]cnc4c3)CC2)ccc1Cl

Reply:
1: 2.37 µM; 2: > 10 µM; 3: > 10 µM

---

target: Sigma non-opioid intracellular receptor 1 (Homo sapiens, UniProt Q99720); experiment: Displacement of [3H] Pentazocine from sigma 1 receptor in HEK293 cell membrane; assay type: cell membranes; details: read-out: Ki
REPORTED_ENDPOINT: pKi
Answers are plain numbers, as −log10 of the molar value.

Lab note: each molecule below needs its pKi filled in.
1. Fc1ccc(COC2CCN(Cc3ncc4ccccn34)CC2)cc1F
2. COc1ccc(CN2CCC[C@H](OCc3cccc(F)c3)C2)cc1F

Reply:
1: 6.84; 2: 8.37

Lab note: each molecule below needs its pKi filled in.
1. Cc1cc(NC(=O)CN2CCC3(CCCN3Cc3ccc(F)c(F)c3)C2)ccc1F (centres undefined)
2. Fc1cccc(CO[C@H]2CCCN(Cc3cn4ccccc4n3)C2)c1
3. Fc1ccc(CN2CCCC23CCN(Cc2cn4ccccc4n2)C3)cc1F (centres undefined)

Reply:
7.80
6.31
8.44

Lab note: each molecule below needs its pKi filled in.
1. Cn1cnc2cc(CN3CCC(OCc4ccc(Cl)c(F)c4)CC3)ccc21
2. Cc1csc(OC[C@@H]2CN(Cc3cc4ccc(Cl)cc4[nH]3)CCO2)n1
3. FC(F)(F)Oc1cccc(CO[C@H]2CCCN(Cc3cn4ccccc4n3)C2)c1

Reply:
[7.51, 6.41, 7.46]
